- TARGET_OR_TEST_SYSTEM: Hexokinase-2 (Homo sapiens)
- Sequence (P52789 whole entry, the tested form may be a part): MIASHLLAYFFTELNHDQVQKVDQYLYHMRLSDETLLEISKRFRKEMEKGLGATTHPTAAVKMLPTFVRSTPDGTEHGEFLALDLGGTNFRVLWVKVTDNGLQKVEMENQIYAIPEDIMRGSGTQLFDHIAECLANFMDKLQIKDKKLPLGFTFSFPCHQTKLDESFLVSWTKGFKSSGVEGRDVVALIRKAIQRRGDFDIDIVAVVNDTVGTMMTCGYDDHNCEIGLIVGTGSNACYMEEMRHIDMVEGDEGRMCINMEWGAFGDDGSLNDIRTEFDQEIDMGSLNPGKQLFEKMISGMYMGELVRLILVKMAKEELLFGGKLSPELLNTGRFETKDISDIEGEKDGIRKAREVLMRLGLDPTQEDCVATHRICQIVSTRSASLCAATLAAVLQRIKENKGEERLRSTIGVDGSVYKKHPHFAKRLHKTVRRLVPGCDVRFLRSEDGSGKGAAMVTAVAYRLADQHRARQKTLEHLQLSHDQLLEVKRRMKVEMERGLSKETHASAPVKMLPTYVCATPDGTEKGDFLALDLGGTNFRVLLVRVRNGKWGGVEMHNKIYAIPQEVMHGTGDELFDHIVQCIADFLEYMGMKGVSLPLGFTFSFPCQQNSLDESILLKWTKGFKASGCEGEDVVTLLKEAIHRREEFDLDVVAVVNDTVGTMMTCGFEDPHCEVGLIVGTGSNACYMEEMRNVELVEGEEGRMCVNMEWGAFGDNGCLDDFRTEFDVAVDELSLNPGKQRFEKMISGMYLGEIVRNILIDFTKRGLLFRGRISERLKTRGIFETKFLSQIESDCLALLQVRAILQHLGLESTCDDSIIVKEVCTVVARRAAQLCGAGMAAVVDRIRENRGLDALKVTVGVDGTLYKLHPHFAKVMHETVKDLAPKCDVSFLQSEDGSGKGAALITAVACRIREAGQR
- ASSAY_TEXT: Inhibition of His-tagged human HK2 (17 to 916 residues) expressed in Escherichia coli BL21(DE3) using glucose as substrate after 45 mins by ADP-glo assay in presence of MgATP
EXPERIMENTAL_ENDPOINT: pIC50
The scale used: pIC50 is minus the common logarithm of the concentration in molar units.

// worked examples, pIC50 included
O=S(=O)(N[C@H]1C(O)O[C@H](CNS(=O)(=O)c2cccc(Cl)c2Cl)[C@@H](O)[C@@H]1O)c1cccc(-c2ccc(Cl)cc2)c1 (some centres undefined) = 8.10
N#Cc1ccc(S(=O)(=O)NC[C@H]2OC(O)[C@H](NC(=O)c3cccc(-c4ccccc4)c3)[C@@H](O)[C@@H]2O)cc1 (some centres undefined) = 6.89

Kindly consider the entry below.
Returns the measured pIC50 for the input molecule. Input: COC(=O)c1cc(S(=O)(=O)NC[C@H]2OC(O)[C@H](NC(=O)c3cccc(Br)c3)[C@@H](O)[C@@H]2O)oc1C (some centres undefined)
6.20

* * *

- TARGET_OR_TEST_SYSTEM: UniProt:P19367
- Sequence (P19367 whole entry): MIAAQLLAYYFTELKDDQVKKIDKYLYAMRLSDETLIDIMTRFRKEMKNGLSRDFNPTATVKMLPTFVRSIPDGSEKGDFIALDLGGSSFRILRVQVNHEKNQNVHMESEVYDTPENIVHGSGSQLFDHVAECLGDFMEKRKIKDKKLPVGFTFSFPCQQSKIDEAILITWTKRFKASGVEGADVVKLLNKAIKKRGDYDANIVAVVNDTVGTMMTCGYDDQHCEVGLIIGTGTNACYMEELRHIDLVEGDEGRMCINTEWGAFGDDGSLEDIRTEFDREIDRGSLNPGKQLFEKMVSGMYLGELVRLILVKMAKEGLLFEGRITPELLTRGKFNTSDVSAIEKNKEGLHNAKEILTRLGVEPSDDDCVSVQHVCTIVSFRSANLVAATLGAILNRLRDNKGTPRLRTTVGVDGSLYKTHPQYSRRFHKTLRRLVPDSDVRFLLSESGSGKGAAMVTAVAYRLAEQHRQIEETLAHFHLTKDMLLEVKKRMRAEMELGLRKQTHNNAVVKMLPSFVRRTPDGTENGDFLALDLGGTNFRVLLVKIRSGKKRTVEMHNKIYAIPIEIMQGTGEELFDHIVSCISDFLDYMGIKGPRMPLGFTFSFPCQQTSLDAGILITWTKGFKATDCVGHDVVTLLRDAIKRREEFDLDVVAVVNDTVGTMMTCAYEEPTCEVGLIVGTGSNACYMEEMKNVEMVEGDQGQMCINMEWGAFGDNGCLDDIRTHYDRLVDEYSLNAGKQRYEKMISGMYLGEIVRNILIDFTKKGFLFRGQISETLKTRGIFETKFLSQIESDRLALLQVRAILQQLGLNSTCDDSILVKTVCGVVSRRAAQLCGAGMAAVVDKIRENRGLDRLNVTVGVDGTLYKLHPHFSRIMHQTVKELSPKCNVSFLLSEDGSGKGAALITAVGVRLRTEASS
EXPERIMENTAL_ENDPOINT: pIC50
// pIC50 here means minus log10 of the molar concentration (mol/L)

O=C(N[C@H]1C(O)O[C@H](CO)[C@@H](O)[C@@H]1O)c1cc([N+](=O)[O-])cc([N+](=O)[O-])c1 (some centres undefined) = 5.70

// returns reported pIC50 for input O=C(N[C@H]1C(O)O[C@H](CO)[C@@H](O)[C@@H]1O)c1ccc(-c2ccccc2)cc1 (some centres undefined)
4.89

Subsequent entry: N#Cc1ccc(S(=O)(=O)NC[C@H]2OC(O)[C@H](NC(=O)c3cccc(-c4ccccc4)c3)[C@@H](O)[C@@H]2O)cc1 (some centres undefined)
8.10

* * *

pIC50: recorded values
- TARGET_OR_TEST_SYSTEM: UniProt:P19367
- Sequence (P19367 whole entry): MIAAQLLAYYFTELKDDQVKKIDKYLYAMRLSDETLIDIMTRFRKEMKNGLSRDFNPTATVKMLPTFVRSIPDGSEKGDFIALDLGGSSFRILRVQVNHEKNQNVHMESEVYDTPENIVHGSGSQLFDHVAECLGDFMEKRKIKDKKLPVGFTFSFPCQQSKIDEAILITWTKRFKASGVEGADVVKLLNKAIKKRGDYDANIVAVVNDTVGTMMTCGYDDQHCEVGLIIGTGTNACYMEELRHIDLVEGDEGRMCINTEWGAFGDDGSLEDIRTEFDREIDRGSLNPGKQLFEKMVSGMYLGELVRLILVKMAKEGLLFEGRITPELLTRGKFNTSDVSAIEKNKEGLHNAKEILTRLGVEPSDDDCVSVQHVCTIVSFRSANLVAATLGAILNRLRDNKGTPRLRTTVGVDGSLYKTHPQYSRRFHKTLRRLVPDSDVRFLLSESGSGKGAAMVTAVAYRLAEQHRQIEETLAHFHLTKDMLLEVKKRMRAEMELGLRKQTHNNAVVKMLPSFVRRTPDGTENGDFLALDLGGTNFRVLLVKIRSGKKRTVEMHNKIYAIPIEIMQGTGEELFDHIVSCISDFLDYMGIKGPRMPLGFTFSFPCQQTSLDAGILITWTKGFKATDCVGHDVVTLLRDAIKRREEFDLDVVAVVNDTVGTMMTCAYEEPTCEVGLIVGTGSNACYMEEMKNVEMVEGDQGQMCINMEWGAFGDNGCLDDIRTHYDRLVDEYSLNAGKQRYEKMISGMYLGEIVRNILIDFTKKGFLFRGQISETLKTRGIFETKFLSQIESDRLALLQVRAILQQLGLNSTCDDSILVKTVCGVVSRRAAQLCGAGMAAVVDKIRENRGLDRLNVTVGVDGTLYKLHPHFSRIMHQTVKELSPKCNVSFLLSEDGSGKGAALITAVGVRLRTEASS
A value of pIC50 is the negative decimal logarithm of a concentration given in moles per litre.

Recorded results for 3 molecules are shown here.
O=C(/C=C/c1ccc(Cl)c(Cl)c1)N[C@H]1C(O)O[C@H](CO)[C@@H](O)[C@@H]1O (some centres undefined) = 5.70
O=C(N[C@H]1C(O)O[C@H](CNS(=O)(=O)c2cccc(Cl)c2)[C@@H](O)[C@@H]1O)c1cccc(-c2ccccc2)c1 (some centres undefined) = 6.80
O=C(N[C@H]1C(O)O[C@H](CNS(=O)(=O)c2ccccc2)[C@@H](O)[C@@H]1O)c1cccc(-c2ccccc2)c1 (some centres undefined) = 6.80

Let's switch to this molecule now.
Which measured pIC50 value corresponds to O=C(N[C@H]1C(O)O[C@H](CNS(=O)(=O)c2cccc(Cl)c2Cl)[C@@H](O)[C@@H]1O)c1ccc(Cl)s1 (some centres undefined) ?
5.70

* * *

- TARGET_OR_TEST_SYSTEM: UniProt:P52789
- ASSAY_TEXT: Inhibition of His-tagged human HK2 (17 to 916 residues) expressed in Escherichia coli BL21(DE3) using glucose as substrate after 45 mins by ADP-glo assay in presence of MgATP
pIC50: −log10 of the molar value.
Note to self: values exactly at 7 are label 1. So pIC50 at or above 7 is label 1, below is label 0.

O=C(/C=C/c1ccc(Cl)c(Cl)c1)N[C@H]1CO[C@H](CO)[C@@H](O)[C@@H]1O = label 0
O=C(N[C@H]1C(O)O[C@H](CO)[C@@H](O)[C@@H]1O)c1cc([N+](=O)[O-])cc([N+](=O)[O-])c1 (some centres not stated) = label 0
O=C(O)c1cccc(S(=O)(=O)NC[C@H]2OC(O)[C@H](NC(=O)c3cccc(-c4ccccc4)c3)[C@@H](O)[C@@H]2O)c1 (some centres not stated) = label 1
COc1cc(C(=O)N[C@H]2C(O)O[C@H](CNS(=O)(=O)c3cccc(Cl)c3Cl)[C@@H](O)[C@@H]2O)cc(-c2ccc(C#N)cc2)c1 (some centres not stated) = label 1
O=C(N[C@H]1C(O)O[C@H](CO)[C@@H](O)[C@@H]1O)c1cccc(-c2ccccc2)c1 (some centres not stated) = label 0
O=S(=O)(N[C@H]1C(O)O[C@H](CNS(=O)(=O)c2cccc(Cl)c2Cl)[C@@H](O)[C@@H]1O)c1ccc(Cl)c(Cl)c1 (some centres not stated) = label 1
O=C(N[C@H]1C(O)O[C@H](CNS(=O)(=O)c2cccc(Cl)c2Cl)[C@@H](O)[C@@H]1O)c1ccc(Cl)s1 (some centres not stated) = label 1

Now consider the entry below.
Test whether the compound N#Cc1ccc(-c2cc(C(=O)N[C@H]3C(O)O[C@H](CO)[C@@H](O)[C@@H]3O)cc(C(F)(F)F)c2)cc1 (some centres not stated) records pIC50 of 7 or higher.
label 0

* * *

- TARGET_OR_TEST_SYSTEM: Hexokinase-2 (Homo sapiens)
- ASSAY_TEXT: Inhibition of His-tagged human HK2 (17 to 916 residues) expressed in Escherichia coli BL21(DE3) using glucose as substrate after 45 mins by ADP-glo assay in presence of MgATP
# reported pIC50; entries follow
The quantity pIC50 is defined as the negative base-10 logarithm of the molar concentration.

Name the recorded pIC50 for O=S(=O)(N[C@H]1C(O)O[C@H](CNS(=O)(=O)c2cccc(Cl)c2Cl)[C@@H](O)[C@@H]1O)c1ccc(Cl)s1 (some centres undefined) .
6.89
